B1: HHH_rd2_0155 (parent)
chain: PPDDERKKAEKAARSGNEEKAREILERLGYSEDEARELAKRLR

Variants of: B1
Protocol: folding stability dG (cDNA display proteolysis); higher = more stable
Experimental Context: PBS, room temperature
In this section, each of the variants is paired with its reported folding stability dG.
Respond numerically; units are kcal/mol and should not be typed.

E37Q 2.1
R22I 2.21
R22L 1.4
E32Y 1.94
K8W 1.97
E23T 1.69

(Q) Read off the recorded folding stability dG for N17P
(A) 0.962

(Q) Read off the recorded folding stability dG for D33K
(A) 1.92

(Q) Read off the recorded folding stability dG for N17A
(A) 1.4

(Q) Read off the recorded folding stability dG for L42W
(A) 3.74

(Q) Read off the recorded folding stability dG for E26Q
(A) 2.39

(Q) Read off the recorded folding stability dG for L25F
(A) 2.35

(Q) Read off the recorded folding stability dG for D3N
(A) 1.98

(Q) Read off the recorded folding stability dG for E10F
(A) 2.16

(Q) Read off the recorded folding stability dG for L42M
(A) 2.39

(Q) Read off the recorded folding stability dG for G16Q
(A) 1.04

(Q) Read off the recorded folding stability dG for R41I
(A) 1.6

(Q) Read off the recorded folding stability dG for K7P
(A) 1.16

(Q) Read off the recorded folding stability dG for E34R
(A) 1.4

(Q) Read off the recorded folding stability dG for G29F
(A) 0.708

(Q) Read off the recorded folding stability dG for D33I
(A) 1.87

(Q) Read off the recorded folding stability dG for S31H
(A) 1.02

(Q) Read off the recorded folding stability dG for R27F
(A) 1.39
